Sourced from paper PMC4552634

- System: P. falciparum stage V gametocytes
- Parameters: BacTiter-Glo ATP luminescence viability of purified stage V gametocytes in 384-well plates, per cent inhibition versus DMSO
- TEST PARAMETERS: 48 h, 5 µM; inhibitor
In all, about 13,000 compounds went through this assay and about 3,200 (25%) showed an effect of 50% or more. The list shows a part of the results.
READOUT LABEL: % Inhibition (%)
Write the value in % as a bare number.

{"COMPOUND": "COc1cccc(CN2CCC(CCOC(c3ccccc3)c3ccc(Cl)cc3)CC2)c1O (stereo not drawn)", "OBSERVED VALUE": -76.2}

Query string: Answer with reported % Inhibition of `NC(=NC1CC1)c1ccc2nc(CCCCCc3nc4ccc(C(N)=NC5CC5)cc4[nH]3)[nH]c2c1`
Result string: 9.891

Query string: Name the recorded % Inhibition of the item `CS(=O)(=O)Nc1ccc2[nH]cc(C3CCN(CCCCCNC(=O)/C=C/c4ccc(Cl)c(Cl)c4)CC3)c2c1` in your answer.
Result string: -23.44

Query string: Output % Inhibition of `CN(c1ccc(NC(=O)Nc2cc(C(C)(C)C)on2)cc1)c1ccnc(NCCN2CCOCC2)n1`
Result string: 2.344

Query string: Indicate its recorded % Inhibition; the compound in question is COc1ccc(-n2ncc(C(=O)N3CCC4(C3)C(=O)N(c3ccccc3)c3ccccc34)c2C)cc1 (stereo not drawn)
Result string: -6.778

Query string: Return % Inhibition (reported value) for this compound: `CC(C)CNC(=O)c1cncc(-c2ccc(CN(C)C3CCN(C)CC3)cc2)c1`
Result string: 31.51

Query string: Answer with reported % Inhibition of CCCCOC(=O)C1=C(C)NC2=C(C(=O)CCC2)C1c1ccc(OC)c(Br)c1 (stereo not drawn)
Result string: -70.69

Query string: Using the record for `COc1cc(Br)c(S(=O)(=O)n2cc(CN3CCC(N)CC3)c3cc(Cl)ccc32)cc1OC` , state its measured % Inhibition.
Result string: 95.22

Query string: Entry `COc1ccc(CCNCCCCCCNCCc2ccc(Cl)c3ccccc23)cc1OC` needs its % Inhibition filled in; supply it.
Result string: 116.7

Query string: Input CCOC(=O)C1=C(C)NC2=C(C(=O)C(C(=O)OC)C(C)C2)C1c1cc(Br)c(OCC)c(OC)c1 (stereo not drawn) , output reported % Inhibition.
Result string: 94.17

Query string: Determine from records and report % Inhibition for Oc1ccccc1CN1CCC2(CCCN(Cc3ccccc3F)C2)C1 (stereo not drawn)
Result string: 28.07
